- Tested on: RPMI-8226 leukemia
- Experiment Description: NCI tumour cell line growth inhibition, 48 h
Examples of compounds with documented TGI follow.

Quick check: TGI of `N#CN=C(N)NC(=O)/C=C/C=C/c1ccc(Cl)cc1` ? > 100 µM

Entry to check: `Cc1ccc(-n2c3c(c4c(CN(C)C)c(O)ccc42)CCc2ccccc2C3=O)cc1` 30.5 µM

Would you mind doing `CC(=O)[CH-]C(=O)c1ccccc1.CC(=O)[CH-]C(=O)c1ccccc1.[Eu+3].[OH-].[OH3+]` as well? > 100 µM

Let us now turn to O=C(CC1(O)C(=O)Nc2c(Cl)ccc(Cl)c21)c1ccc2ccccc2c1 (configuration not stated) 31 µM

One more compound: `COc1ccc(/C=C/C(=O)/C=C/c2ccc(OC)cc2)cc1` 55.9 µM
